Each record here notes measured apparent Kd.
tested on: MS2 coat protein; assay: apparent Kd, MS2 coat protein; higher = weaker binding; RNA-MaP array; tryptophan 2.4 mM where present; details: designed as: OFF switch for tryptophan; no ligand
Your answer should be a plain number; it is taken to be in nM.

Quick note, apparent Kd for `CGCCACAUGAGGAUCACCCAUGUCUUGGCGCGAGGACCGGUACGGCCGCCACUCGCGUUUCAGUGAGCGCAUGCGUCCUUGGUAU` landed at 18.3

Quick note, apparent Kd for `ACAUGAGGAUCACCCAUGUUAAACAGGGUGCGAGGACCGGUACGGCCGCCACUCGGACAUUAUUACGAGUGAAUGGUAACGAUGU` landed at 19.9

Quick note, apparent Kd for `AAUCGUAAGGCGGCCGCCACUACACAUGAGGAUCACCCAUGUCUCGCAGGCUUGCGUUGGGAUAGUAGGACCGGGCCAGUAAUAA` landed at 25.1

---

tested on: MS2 coat protein; assay: apparent Kd, MS2 coat protein; higher = weaker binding; RNA-MaP array; FMN 200 µM where present; conditions: designed as: OFF switch for flavin mononucleotide; no ligand
property: apparent Kd (µM)
Your answer should be a plain number; it is taken to be in µM.

Consider the worked cases shown below.
[
  {
    "sequence_chain": "UAUAUAUAGUAAGGAUAUGUAUUAAUAUUAUAAACAGAAGGUACUGACAUGAGGAUCACCCAUGUUUUAGUGUGGGCAUGUAGA",
    "study_target": "MS2 coat protein",
    "property": "apparent Kd",
    "units_symbol": "µM",
    "test_result": 0.0876
  },
  {
    "sequence_chain": "GAUCAACAUGAGGAUCACCCAUGUGAGGAUAUGGACUUGCCCACUUAACCAUUAGAGUCUAGAAGGCGCAUCUA",
    "study_target": "MS2 coat protein",
    "property": "apparent Kd",
    "units_symbol": "µM",
    "test_result": 0.027
  },
  {
    "sequence_chain": "GUGUACAGAGGAUAUGCACGAGUAGUUACGAAAGUAACUACACAUGAGGAUCACCCAUGUAGAAGGCUGUACAC",
    "study_target": "MS2 coat protein",
    "property": "apparent Kd",
    "units_symbol": "µM",
    "test_result": 0.0132
  }
]

Form field apparent Kd for item `UCAUCAACGGGCGGGUCGGUUGGACAUGAGGAUCACCCAUGUAGAAGGACCGGUGGGCUCCGGCGGUAGGAUAUACAUUUGGUG` on MS2 coat protein: 0.00814

---

system: MS2 coat protein; assay: apparent Kd, MS2 coat protein; higher = weaker binding; RNA-MaP array; details: ligand present: flavin mononucleotide; designed as: OFF switch for flavin mononucleotide
Each record here notes measured apparent Kd.
Your answer should be a plain number; it is taken to be in nM.

[
  {
    "sequence_chain": "AACUCCACCGCAGGAUAUCCGGUCUCUCUGUAGACGACAUGAGGAUCACCCAUGUAUCCGGGAAUGGAGAAGGGCGGUGCUCCU",
    "study_target": "MS2 coat protein",
    "apparent Kd, nM": 13
  }
]

Quick note, apparent Kd for `CGGUGGUGAGGAUAUCAAAUGUGGAAGGAGAAGACACCCAGUGAGAAGGCACAUGAGGAUCACCCAUGUACAGC` landed at 6

Quick note, apparent Kd for `GUGUCGCGUACAGGAUAUGCUUAGGCGCUGCCCUCACAUGAGGAUCACCCAUGUAGUUUCCGCAGGCAGAAGGGUACUGACGUC` landed at 16.2

Quick note, apparent Kd for `CGACGCUUAGGAUAUUGGUACACCUACAUGAGGAUCACCCAUGUGACUCCUUUACAAGGGCAAGAAGGAAGUUGGU` landed at 221

Quick note, apparent Kd for `GGGAUACAUGAGGAUCACCCAUGUCAGGAUAUCUUUUACCGGCACGACAAUCAUAUGAAGAGAAGGGACUAUAU` landed at 31.9

Quick note, apparent Kd for `CCAGUUACCAGAGGAUAUGAUUCCAGAGUUAAGGGUAUUCACAUGAGGAUCACCCAUGUGCUCCUUCAGAAGGCUGAUAACCCG` landed at 49.4

Quick note, apparent Kd for `AAAAGUACAGGAUAUACAUGAGGAUCACCCAUGUCAGAAUAUAAUGAUAAGAAACUGAGUAGAAGGGUAACGAG` landed at 20.3

---

tested on: MS2 coat protein; test: apparent Kd, MS2 coat protein; higher = weaker binding; RNA-MaP array; FMN 200 µM where present; details: designed as: OFF switch for flavin mononucleotide; no ligand
Each record here notes measured apparent Kd.
Your answer should be a plain number; it is taken to be in nM.

[
  {
    "sequence_chain": "GAGCUCAAUGAGAAGGGUUACAUGAGGAUCACCCAUGUCGACCUUGGCGUAACAGGAUAUCAUCGGGCUCAGUGCGUUGACCCA",
    "apparent Kd [nM]": 24.9
  },
  {
    "sequence_chain": "UGGGAUGGCUAGAAGGCUCCUUAUACUACAGGGAGAGGAUAUGGCACAUGAGGAUCACCCAUGUGUACCUGUAGGUGAUCCACA",
    "apparent Kd [nM]": 113
  },
  {
    "sequence_chain": "GGGUUACAUGAGGAUCACCCAUGUGAGGAUAUGAUACUAUGUACUUCGGUACAUAGUAUCAGAAGGCACAUAAA",
    "apparent Kd [nM]": 124
  }
]

Okay, next one:
Form field apparent Kd for item `GCCUUAUCUGUCAGGAUAUACAAUUUUUUUUUUUUGUAGAAGGGACAUGAGGAUCACCCAUGUACAUUACAUUG` on MS2 coat protein: 34

---

system: MS2 coat protein; assay: apparent Kd, MS2 coat protein; higher = weaker binding; RNA-MaP array; conditions: ligand present: flavin mononucleotide; designed as: OFF switch for flavin mononucleotide
Parameter threshold = 0.02 µM. Response is satisfied when apparent Kd meets or exceeds it, else not satisfied.

[
  {
    "sequence_chain": "ACCUACGUAGGAUAUACGCAUCGUGGACCGCAUGCCCGUGCACAUGAGGAUCACCCAUGUAGAAGGACGUACGC",
    "study_target": "MS2 coat protein",
    "qualitative_label": "satisfied"
  }
]

Quick check: does `AUGUGUAUUGAAGGAUAUGAAGCCGGCAUAAAAUCAGAAGGUCAACUAAUUACACAUGAGGAUCACCCAUGUGAUGACAUGCUU` have apparent Kd greater than or equal to 0.02 µM?
satisfied

Quick check: does `UUUAUGUCAGGAUAUCCAACACUAUGGGAAAGUAAAUAUAGGGAGAAGGGACAUGAGGAUCACCCAUGUCAACA` have apparent Kd greater than or equal to 0.02 µM?
not satisfied

Quick check: does `GAAGUCGCCGAGAAGGGAGCGAAACUCUCUAUCACAUGAGGAUCACCCAUGUAGUUCUCGUGAGCUCAGGAUAUCGUCGAACGC` have apparent Kd greater than or equal to 0.02 µM?
not satisfied

Quick check: does `AUCGCGACAGGAUAUACAUGAGGAUCACCCAUGUUGAUGAGCGAGCAUCGGACUGAGAGUAGAAGGGUCGGCUC` have apparent Kd greater than or equal to 0.02 µM?
not satisfied

Quick check: does `AACCGGCAAGGAUAUACAUGAGGAUCACCCAUGUACGACGCGCUGGCUACGUUUUUAUGUAGAAGGUGCCGACC` have apparent Kd greater than or equal to 0.02 µM?
not satisfied

---

system: MS2 coat protein; assay: apparent Kd, MS2 coat protein; higher = weaker binding; RNA-MaP array; conditions: ligand present: flavin mononucleotide; designed as: OFF switch for flavin mononucleotide
property: apparent Kd (nM)
Your answer should be a plain number; it is taken to be in nM.

Consider the worked cases shown below.
[
  {
    "sequence_chain": "GGGCGCCGAGGAUAUCACAGGAGUAACAUGAGGAUCACCCAUGUAUCAGUGGGCGUAAUAUGAGAAGGCGGUGGUU",
    "study_target": "MS2 coat protein",
    "apparent Kd / nM": 43.5
  },
  {
    "sequence_chain": "GGUAUGUCAGGAUAUUAAUGGUCAGUAACGGAACAGAGGAGUAAGAAGGGACAUGAGGAUCACCCAUGUAUUCG",
    "study_target": "MS2 coat protein",
    "apparent Kd / nM": 16.4
  },
  {
    "sequence_chain": "AAAAGCAGGGUCAGGAUAUAGGGUUCACUGUUGGCCUAGAAGGGACAUGAGGAUCACCCAUGUAUAGUAGUGGG",
    "study_target": "MS2 coat protein",
    "apparent Kd / nM": 262
  },
  {
    "sequence_chain": "UUAGACCUGCGAGGAUAUUCCAGACUAACUGAGGAAGAAGGCGCUAGAACAUGAGGAUCACCCAUGUAACAGGGAACACUUCGU",
    "study_target": "MS2 coat protein",
    "apparent Kd / nM": 26.3
  },
  {
    "sequence_chain": "AAGUGACAUGAGGAUCACCCAUGUGAGGAUAUGGCUGAACAGAAAUAUGGGAAAAGAGCCAGAAGGCACGCCGG",
    "study_target": "MS2 coat protein",
    "apparent Kd / nM": 112
  }
]

Quick note, apparent Kd for `UCGUUGGCACAGAAGGGACUCUCGAAGCAUGUGUCAGGAUAUGUGCGCUACAUGAGGAUCACCCAUGUCAAGACCUGGUUAGCA` landed at 18.8

Quick note, apparent Kd for `AUAAUAGUAGGAUAUACAUGAGGAUCACCCAUGUGACCGCUCAAAGAUAGCGAUGCUCGUAGAAGGACUGUGGA` landed at 21.8
